# reported phosphorylation enrichment; entries follow
target: Fes (UniProt P07332); test: phosphorylation enrichment, bacterial display (enrichment ratio); higher = better substrate or ligand; peptides without Tyr show the background;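 note: 11-residue human phosphosite peptides and single-mutation variants displayed on the E. coli surface, counted by deep sequencing, each peptide's frequency after selection divided by its frequency in the unselected input library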;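 note: frequency after pTyr selection over input frequency; kinase dosed for 20-30% of maximal phosphorylation in three min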
Sequence (P07332 whole entry, looked up): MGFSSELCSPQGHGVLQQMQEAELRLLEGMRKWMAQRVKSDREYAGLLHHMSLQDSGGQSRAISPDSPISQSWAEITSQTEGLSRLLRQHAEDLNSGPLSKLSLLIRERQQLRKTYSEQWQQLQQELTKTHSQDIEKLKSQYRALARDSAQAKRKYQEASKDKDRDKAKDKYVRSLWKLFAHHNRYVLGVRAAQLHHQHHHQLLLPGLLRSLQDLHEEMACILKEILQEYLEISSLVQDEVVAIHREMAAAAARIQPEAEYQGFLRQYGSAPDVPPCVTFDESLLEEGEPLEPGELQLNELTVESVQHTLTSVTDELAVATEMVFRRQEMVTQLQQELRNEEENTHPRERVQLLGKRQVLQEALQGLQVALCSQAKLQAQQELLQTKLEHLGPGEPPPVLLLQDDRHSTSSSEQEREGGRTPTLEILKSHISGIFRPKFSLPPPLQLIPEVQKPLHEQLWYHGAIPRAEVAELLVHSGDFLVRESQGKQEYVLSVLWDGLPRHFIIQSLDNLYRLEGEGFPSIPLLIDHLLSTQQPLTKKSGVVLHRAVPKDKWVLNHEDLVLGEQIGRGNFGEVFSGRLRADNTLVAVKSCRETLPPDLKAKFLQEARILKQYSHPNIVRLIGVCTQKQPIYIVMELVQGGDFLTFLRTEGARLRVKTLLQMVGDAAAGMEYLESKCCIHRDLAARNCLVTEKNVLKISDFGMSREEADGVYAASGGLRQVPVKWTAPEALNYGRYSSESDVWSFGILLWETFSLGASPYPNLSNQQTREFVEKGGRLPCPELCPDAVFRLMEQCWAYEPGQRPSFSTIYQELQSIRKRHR
A bare number is all that is needed in reply.

Answered cases to consult:
biopolymer.sequence	reported.result
FRASFYRKGGC [ALK_Y1283_YF]	0.902
EGDGVYTLNNE [HP_Y125]	1.16
MAFDRYVAICA [OR52J3_Y125_V128I]	0.808
ISIFFYAKGQP [MPZ_Y82_H81Y_YF]	1.52
SGGSSYGSGGC [KRT1_Y532_G537C]	0.932

Entry AEQEEYSAMRD [NRAS_Y64_G60E] : phosphorylation enrichment on Fes (UniProt P07332) = 1.26

// sequence EAVSIYQFFGQ [CBLC_Y402_H405Y_YF] , assay Fes (UniProt P07332), phosphorylation enrichment value: 1.36

For the sequence DLKFHYDNTAG [KDR_Y1214_P1210L] , the measured phosphorylation enrichment on Fes (UniProt P07332) was 1

Measured phosphorylation enrichment for this entry LNARHYGGLTG [PGAM2_Y92_E89A] on Fes (UniProt P07332): 0.573

Entry LVMFIYAISGM [SCN1A_Y1684_F1687S] : phosphorylation enrichment on Fes (UniProt P07332) = 1.99
